assay: Half life for hydrolysis of the compound; type: ADME
Test Readout: half-life (min)
Report the figure in min without appending any unit label.

Endpoint output: half-life of CNC(C)[C@H]1CCC(NC(=O)OCC2c3ccccc3-c3ccc(S(=O)(=O)O)cc32)[C@@H](O[C@@H]2C(NC(=O)OCC3c4ccccc4-c4ccc(S(=O)(=O)O)cc43)C[C@@H](NC(=O)OCC3c4ccccc4-c4ccc(S(=O)(=O)O)cc43)C(O[C@H]3OC[C@](C)(O)C(NC)[C@@H]3O)[C@@H]2O)O1 (stereo partly specified) . Value? 480

* * *

test: The compound was evaluated for pharmacokinetic parameters HSA associating affinity; type: ADME; settings: human
Test Readout: Ka

Endpoint output: Ka of CNC(C)[C@H]1CCC(NC(=O)OCC2c3ccccc3-c3ccc(S(=O)(=O)O)cc32)[C@@H](O[C@@H]2C(NC(=O)OCC3c4ccccc4-c4ccc(S(=O)(=O)O)cc43)C[C@@H](NC(=O)OCC3c4ccccc4-c4ccc(S(=O)(=O)O)cc43)C(O[C@H]3OC[C@](C)(O)C(NC)[C@@H]3O)[C@@H]2O)O1 (stereo partly specified) . Value? 131000 M⁻¹

Reference source for all entries: ChEMBL document CHEMBL1135785
